tested on: purified rabbit kidney neutral endopeptidase (Oryctolagus cuniculus)
Sequence (P08049 whole entry): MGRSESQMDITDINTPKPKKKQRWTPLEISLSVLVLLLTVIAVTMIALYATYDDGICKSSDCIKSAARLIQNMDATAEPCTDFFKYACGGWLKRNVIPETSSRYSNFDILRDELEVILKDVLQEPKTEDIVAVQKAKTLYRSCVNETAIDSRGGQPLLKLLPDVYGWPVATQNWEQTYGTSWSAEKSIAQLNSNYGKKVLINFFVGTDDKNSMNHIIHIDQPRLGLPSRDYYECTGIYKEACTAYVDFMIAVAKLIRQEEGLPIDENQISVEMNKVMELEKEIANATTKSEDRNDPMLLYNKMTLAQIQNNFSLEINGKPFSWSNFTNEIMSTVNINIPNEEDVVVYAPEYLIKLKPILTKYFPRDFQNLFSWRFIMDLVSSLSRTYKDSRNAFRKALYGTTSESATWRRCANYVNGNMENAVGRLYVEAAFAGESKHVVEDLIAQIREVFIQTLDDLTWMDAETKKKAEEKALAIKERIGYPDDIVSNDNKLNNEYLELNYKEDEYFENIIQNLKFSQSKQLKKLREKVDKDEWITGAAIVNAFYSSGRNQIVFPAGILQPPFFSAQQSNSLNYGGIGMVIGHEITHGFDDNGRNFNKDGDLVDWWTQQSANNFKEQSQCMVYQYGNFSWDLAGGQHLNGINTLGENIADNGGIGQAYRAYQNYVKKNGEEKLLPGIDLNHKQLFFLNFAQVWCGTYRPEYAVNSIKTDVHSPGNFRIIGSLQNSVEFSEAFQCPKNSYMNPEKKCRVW
pIC50: −log10 of the molar value.
observable: pIC50

- molecule: "CC(C)CC(N)CSSCC(Cc1ccccc1)C(=O)NC(C)C(=O)OCc1ccccc1 (stereo not shown) [Example 2]"
  value: 8.60
- molecule: "CC(C)CC(N)CSSCC(Cc1ccccc1)C(=O)NCC(=O)OCc1ccccc1 (stereo not shown) [Example 1]"
  value: 8.70
- molecule: "CSCCC(N)CSSCC(Cc1ccccc1)C(=O)NC(C)C(=O)OCc1ccccc1 (stereo not shown) [Example 6]"
  value: 8.92
- molecule: "C[S+]([O-])CCC(N)CSSCC(CC[S+](C)[O-])C(=O)NC(CC(=O)OCc1ccccc1)Cc1ccccc1 (stereo not shown) [Example 30]"
  value: 8.52
- molecule: "C[S+]([O-])CCC(N)CSSCC(Cc1ccccc1)C(=O)NCC(=O)OCc1ccccc1 (stereo not shown) [Example 8]"
  value: 8.70
- molecule: "CSCCC(N)CSSCC(Cc1ccccc1)C(=O)NC(Cc1ccccc1)C(=O)OCc1ccccc1 (stereo not shown) [Example 7]"
  value: 8.60
- molecule: "NC(CSSCC(Cc1ccccc1)C(=O)NCC(=O)OCc1ccccc1)Cc1ccccc1 (stereo not shown) [Example 4]"
  value: 8.70

----------
assay protocol: Tail flick test (withdrawal of the tail), i.v.
Type: in vivo
test settings: rats, 10 mg/kg

- molecule: "CSCCC(N)CSSCC(Cc1ccccc1)C(=O)NC(Cc1ccccc1)C(=O)OCc1ccccc1 (stereo not shown) [Example 7]"
  display unit: "%"
  % analgesia (tail flick): 42
- molecule: "CC(C)CC(N)CSSCC(Cc1ccccc1)C(=O)NCC(=O)OCc1ccccc1 (stereo not shown) [Example 1]"
  display unit: "%"
  % analgesia (tail flick): 20
- molecule: "CSCCC(N)CSSCC(Cc1ccccc1)C(=O)NCC(=O)OCc1ccccc1 (stereo not shown) [Example 5]"
  display unit: "%"
  % analgesia (tail flick): 25
- molecule: "C[S+]([O-])CCC(N)CSSCC(CC[S+](C)[O-])C(=O)NC1CCCCC1C(=O)OCc1ccccc1 (stereo not shown) [Example 32]"
  display unit: "%"
  % analgesia (tail flick): 36
